Measured mass density values are reported for all entries that follow.
settings: 303.15 K; 100.7 kPa; Liquid; Vibrating tube method
Parameter: mass density (kg/m3)

* CCCCCCn1cc[n+](C)c1.F[P-](F)(F)(F)(F)F [1-hexyl-3-methylimidazolium hexafluorophosphate] | 1288.61
* CCCCn1cc[n+](C)c1.F[P-](F)(F)(F)(F)F [1-butyl-3-methylimidazolium hexafluorophosphate] | 1362.13
* C1CCOC1 [tetrahydrofuran] | 877.809
* CCCCCCCC[n+]1ccn(C)c1.F[P-](F)(F)(F)(F)F [1-octyl-3-methylimidazolium hexafluorophosphate] | 1230.84

====

conditions: 313.15 K; 100.7 kPa; Liquid; Vibrating tube method
Parameter: mass density (kg/m3)

- C1CCOC1 [tetrahydrofuran]: 866.713
- CCCCCCCC[n+]1ccn(C)c1.F[P-](F)(F)(F)(F)F [1-octyl-3-methylimidazolium hexafluorophosphate]: 1223.3
- CCCCCCn1cc[n+](C)c1.F[P-](F)(F)(F)(F)F [1-hexyl-3-methylimidazolium hexafluorophosphate]: 1280.82
- CCCCn1cc[n+](C)c1.F[P-](F)(F)(F)(F)F [1-butyl-3-methylimidazolium hexafluorophosphate]: 1353.88
